- STUDY_TARGET: human ether-à-go-go-related gene (hERG) potassium channel (human);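 further: peak tail current of the secondary pulse compared with the same well before compound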
- Sequence (Q12809 whole entry, looked up): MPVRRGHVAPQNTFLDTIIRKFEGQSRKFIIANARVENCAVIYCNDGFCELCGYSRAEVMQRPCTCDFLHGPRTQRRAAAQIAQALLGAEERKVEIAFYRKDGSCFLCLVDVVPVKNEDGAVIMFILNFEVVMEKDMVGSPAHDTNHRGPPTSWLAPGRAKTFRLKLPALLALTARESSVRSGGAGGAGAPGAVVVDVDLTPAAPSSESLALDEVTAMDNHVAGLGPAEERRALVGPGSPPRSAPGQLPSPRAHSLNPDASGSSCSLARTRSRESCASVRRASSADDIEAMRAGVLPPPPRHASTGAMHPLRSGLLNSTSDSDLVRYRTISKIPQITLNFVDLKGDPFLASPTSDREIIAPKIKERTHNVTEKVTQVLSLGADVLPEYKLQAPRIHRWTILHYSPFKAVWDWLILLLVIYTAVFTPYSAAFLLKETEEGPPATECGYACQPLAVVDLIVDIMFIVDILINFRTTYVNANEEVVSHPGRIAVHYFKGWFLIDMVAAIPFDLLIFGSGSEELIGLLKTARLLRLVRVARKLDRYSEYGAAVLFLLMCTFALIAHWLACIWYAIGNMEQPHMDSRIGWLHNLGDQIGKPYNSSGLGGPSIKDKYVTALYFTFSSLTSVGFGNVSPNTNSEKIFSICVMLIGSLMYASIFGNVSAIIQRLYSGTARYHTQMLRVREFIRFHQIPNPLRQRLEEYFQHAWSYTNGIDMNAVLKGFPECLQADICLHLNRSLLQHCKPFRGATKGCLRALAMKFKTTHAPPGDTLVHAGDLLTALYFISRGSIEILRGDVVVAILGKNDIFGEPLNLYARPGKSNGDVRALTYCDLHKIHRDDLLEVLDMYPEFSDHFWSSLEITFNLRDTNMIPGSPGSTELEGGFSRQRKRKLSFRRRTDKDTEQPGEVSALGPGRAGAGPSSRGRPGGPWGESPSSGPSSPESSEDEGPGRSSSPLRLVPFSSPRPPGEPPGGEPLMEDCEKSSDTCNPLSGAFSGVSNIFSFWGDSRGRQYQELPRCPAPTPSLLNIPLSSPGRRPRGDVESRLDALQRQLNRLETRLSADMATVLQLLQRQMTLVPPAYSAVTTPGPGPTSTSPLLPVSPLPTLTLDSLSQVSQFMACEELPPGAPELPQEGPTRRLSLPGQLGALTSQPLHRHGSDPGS
- TEST_DESCRIPTION: primary screen, population patch clamp on CHO cells stably expressing hERG; higher = less effect of the substance
Screen size: about 310,000 compounds; about 14,000 (4.5%) showed an effect of 50% or more. Effects have a minus sign here. Only a selection was taken, and strong results are over-represented in it overall.
MEASURED_ATTRIBUTE: hERG current change (%, negative = inhibition) at 10uM (%)
Write down the numeric answer in % and omit the unit.

Field request: hERG current change (%, negative = inhibition) at 10uM | item: O=C(CSc1nnc(SCc2ccc(Cl)cc2)s1)c1ccc2c(c1)OCO2
9.81

And what about the compound COc1cccc2sc(N(CCCN(C)C)C(=O)c3sc4ccccc4c3Cl)nc12.Cl ?
-24.6

And what about the compound Cc1ccc2sc(N(CCCN(C)C)C(=O)CCS(=O)(=O)c3ccccc3)nc2c1C ?
-6.04

And what about the compound COc1cccc2sc(N(CCN(C)C)C(=O)/C=C/c3cccs3)nc12.Cl ?
-41.5

And what about the compound N#Cc1c(-c2ccco2)cc(-c2ccc(F)cc2)nc1N ?
-2.08

And what about the compound COc1cccc2sc(N(CCCN(C)C)C(=O)CCS(=O)(=O)c3ccccc3)nc12 ?
-62.7

And what about the compound COc1cc(C(=O)NCc2ncccc2C)ccc1OC1CCN(C(C)=O)CC1 ?
6.34

And what about the compound COc1ccc(Cl)c2sc(N(CCN(C)C)C(=O)CCS(=O)(=O)c3ccc(C)cc3)nc12.Cl ?
-7.51

Now turn to the next compound.
Field request: hERG current change (%, negative = inhibition) at 10uM | item: CCOc1cccc2sc(N(CCN(C)C)C(=O)CCS(=O)(=O)c3ccccc3)nc12.Cl
-23.5
